# assay.info: Solubility at pH 6.5 after 24 hrs by chemiluminescence assay
# Assay type: physicochemical
# details: buffer
property: solubility at 24 h

A selection of reference data follows.
# input.smiles, solubility at 24 h
measured = [
    ("NS(=O)(=O)c1ccc(Sc2ccccn2)c(C(=O)NCc2ccccn2)c1", "> 253 µM"),
    ("NS(=O)(=O)c1cnc(Sc2c(F)c(F)cc(F)c2F)c(C(=O)NCc2ccccn2)c1", "< 21.2 µM"),
    ("NS(=O)(=O)c1ccc(Sc2ccccc2)c(C(=O)NCc2ccccc2)c1", "< 25.1 µM"),
    ("CN(C)CCNC(=O)c1cc(S(N)(=O)=O)cnc1Sc1ccccc1", "> 265 µM"),
    ("NS(=O)(=O)c1ccc(Sc2ccccc2)c(C(=O)NCc2ccccn2)c1", "> 275 µM"),
]

In: Dear colleague, I am looking for the recorded solubility at 24 h of the following compound: COCCNC(=O)c1cc(S(N)(=O)=O)cnc1Sc1ccccc1
Out: 35.6 µM

In: Dear colleague, I am looking for the recorded solubility at 24 h of the following compound: NS(=O)(=O)c1ccc(S(=O)(=O)c2ccccc2)c(C(=O)NCc2ccccc2)c1
Out: 55.9 µM

In: Dear colleague, I am looking for the recorded solubility at 24 h of the following compound: COc1ccc(CNC(=O)c2cc(S(N)(=O)=O)cnc2Sc2ccc(F)c(F)c2)cc1
Out: < 19.9 µM

In: Dear colleague, I am looking for the recorded solubility at 24 h of the following compound: NS(=O)(=O)c1ccc(SCc2ccccc2)c(C(=O)NCc2ccccc2)c1
Out: < 24.2 µM

In: Dear colleague, I am looking for the recorded solubility at 24 h of the following compound: NS(=O)(=O)c1ccc(Sc2ccccc2CO)c(C(=O)NCc2ccccn2)c1
Out: > 258 µM
